target: SMYD3 (Homo sapiens (Human), UniProt Q9H7B4); experiment: SMYD3 cell assay (Trimethyl-MEKK2 In-Cell Western in 293T/17 cells transfected with MEKK2-flag and SMYD3); assay type: cell-based; conditions: Table 3A; average of n = 1 to n = 50; read-out: SMYD3 cell IC50
Sequence (Q9H7B4 whole entry): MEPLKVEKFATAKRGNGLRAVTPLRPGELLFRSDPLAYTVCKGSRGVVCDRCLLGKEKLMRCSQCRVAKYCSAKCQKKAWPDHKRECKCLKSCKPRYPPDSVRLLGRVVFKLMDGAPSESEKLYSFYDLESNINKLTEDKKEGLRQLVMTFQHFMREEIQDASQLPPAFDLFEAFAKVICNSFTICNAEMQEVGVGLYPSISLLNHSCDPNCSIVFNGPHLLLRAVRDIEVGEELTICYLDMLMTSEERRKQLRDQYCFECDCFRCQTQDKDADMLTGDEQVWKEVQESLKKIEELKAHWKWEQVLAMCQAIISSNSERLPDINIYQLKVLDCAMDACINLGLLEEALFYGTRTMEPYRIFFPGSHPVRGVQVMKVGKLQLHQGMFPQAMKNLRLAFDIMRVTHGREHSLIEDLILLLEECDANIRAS
measuredMetric: log10(IC50) (log10 of the value in nM)
Log scale reminder: IC50 in nM, then log10 taken.

Below, 3 compounds whose answers are already recorded.
C[C@H]1CC(NC(=O)c2ccc3c(c2)CC(=O)N3)CCN1S(=O)(=O)c1ccc(C(C)(C)N)cc1 (stereo partly shown) [compound 584] :: 2.81
C[C@@H]1CN(S(=O)(=O)N2CCC(N)CC2)CC[C@H]1NC(=O)c1cc2c(cc1Cl)NC(=O)C2 [compound 608] :: 3.80
O=C1Cc2cc(C(=O)N[C@H]3C[C@H]4CC[C@@H](C3)N4S(=O)(=O)CC3CCCNC3)ccc2N1 (stereo partly shown) [compound 590] :: 2.89

Which log10(IC50) reading was recorded for the compound CN(C)C1CCN(S(=O)(=O)N2[C@@H]3CC[C@H]2C[C@@H](NC(=O)c2ccc4c(c2)CC(=O)N4)C3)CC1 [compound 593] ?
2.70

Could you tell me which log10(IC50) is on file for NC1CCN(S(=O)(=O)N2[C@@H]3CC[C@H]2C[C@@H](NC(=O)c2cc4c(cc2F)NC(=O)C4)C3)CC1 [compound 576] ?
2.72

###

target: SMYD3 (Homo sapiens (Human), UniProt Q9H7B4); experiment: SMYD3 biochemical assay (SMYD3 enzyme assay on MEKK2 protein substrate, 3H-SAM scintillation proximity assay); details: Table 1A; average of n = 1 to n = 50; read-out: SMYD3 Biochem IC50
pIC50: −log10 of the molar value.
measuredMetric: pIC50

CCc1nnc(C(=O)N[C@H]2CC[C@H](NC(=O)CCN)CC2)[nH]1 [compound 536] :: < 4.30
CC(NC(=O)c1cc(Cl)[nH]n1)C1CCN(C(=O)[C@H](C)N)CC1 (stereo partly shown) [compound 527] :: < 4.30
NCCC(=O)N[C@H]1CC[C@H](NC(=O)c2cc3cn[nH]c3cn2)CC1 [compound 529] :: 5.35

Now look at this one.
Quick check: pIC50 of NCCC(=O)N[C@H]1CC[C@H](NC(=O)c2n[nH]c(=O)[nH]2)CC1 [compound 530] ?
< 4.30

###

biological target: UniProt Q9H7B4; assay: SMYD3 biochemical assay (SMYD3 enzyme assay on MEKK2 protein substrate, 3H-SAM scintillation proximity assay); conditions: read-out: SMYD3 Biochem IC50 (μM)*
measuredMetric: IC50 (µM)
The answer is to be given in µM; state only the numeric part.

Worked examples, 5 compounds total:
N[C@H]1CC[C@H](NC(=O)c2cnc3c(c2)CC(=O)N3)CC1 :: 11.9
C[C@H](N)C(=O)N1CC[C@@H](CNC(=O)c2ccc3c(c2)CC(=O)N3)C1 :: 10.2
CC(=O)c1c[nH]c(C(=O)N[C@H]2CC[C@H](N)CC2)c1 :: 134
Cn1nc(O)cc1C(=O)NC1CCNCC1 :: 19.7
CCC1(C(=O)N[C@H]2CC[C@H](N)CC2)CCCN1 (stereo partly drawn) :: 150

Moving on to another compound below.
So what does the record say about IC50 for CC(NC(=O)c1ccc2[nH]c(=O)[nH]c2c1)C1CCN(C(=O)[C@H](C)N)CC1 (stereo partly drawn) ?
6.76

###

molecular target: SMYD3 (Homo sapiens (Human)); experiment: SMYD3 biochemical assay (SMYD3 enzyme assay on MEKK2 protein substrate, 3H-SAM scintillation proximity assay); conditions: read-out: SMYD3 Biochem IC50 (μM)*
Where a name gives a salt, the structure may show the parent alone.
Exam item: assign rule met to entries whose IC50 is below 60 µM and rule not met to entries at or above 60 µM. Note that a value of exactly 60 µM receives rule not met.

Study these solved cases before continuing.
CCn1cnc(C(=O)N[C@H]2CC[C@H](N)CC2)c1 [compound 15] :: rule met
Cc1nc(-c2ccc(C(=O)N[C@H]3CC[C@H](N)CC3)cc2)no1 [compound 137] :: rule met
CC(NC(=O)c1ccc2c(c1)CC(=O)N2)C1CCN(C(=O)[C@@H](C)N)CC1 (stereo partly drawn) [compound 87] :: rule met

Strictly below 60 µM: is that where IC50 of CCc1ccc(C(=O)N[C@H]2CC[C@H](N)CC2)cc1 [compound 18] sits?
rule not met

Item Cc1nc(-c2ccc(C(=O)NC(C)C3CCN(C(=O)[C@H](C)N)CC3)cc2)no1 (stereo partly drawn) [compound 179] : IC50 beneath 60 µM, strictly?
rule not met

Confirm or reject: IC50 of Nc1cc(C(=O)NC(c2ccccc2)C2CCNCC2)n[nH]1 (stereo not drawn) [compound 45] lies strictly below 60 µM
rule not met

Hello, I'm reviewing records and need to know if IC50 of Cc1cc(C(=O)N[C@H]2CC[C@H](N)CC2)n(Cc2ccccc2)n1 [Cpd. No. 29, Hydrochloride] is below 60 µM. Could you check?
rule met

Please let me know if CC(CC(=O)N[C@H]1CC[C@H](N)CC1)C1CC1 (stereo partly drawn) [compound 62] shows IC50 below 60 µM.
rule not met

Quick check: does CC(NC(=O)c1nccc2ccccc12)C1CCN(C(=O)[C@H](C)N)CC1 (stereo partly drawn) [compound 171] have IC50 under 60 µM?
rule not met

Does CCc1cc(C(=O)N[C@H]2CC[C@H](N)CC2)on1 [compound 14] have IC50 strictly under 60 µM?
rule not met

# check: IC50 < 60 µM for CCc1ncc(C(=O)NC(c2ccccc2)C2CCNCC2)s1 (stereo not drawn) [compound 60]
rule not met

Determine whether this compound shows IC50 lower than 60 µM (ties excluded): CC(CN1CCCC1)C(=O)NC(c1ccccc1)C1CCNCC1 (stereo not drawn) [compound 109]
rule not met

Record Cc1cc2[nH]c(C(=O)N[C@H]3CC[C@H](N)CC3)cc2o1 [compound 57] : is its IC50 strictly below 60 µM?
rule not met

Please let me know if CC(=O)Nc1ccc(S(=O)(=O)N2CCC(NC(=O)c3ccnn3C)CC2)cc1 [compound 7] shows IC50 below 60 µM.
rule not met

###

target: SMYD2 (Homo sapiens (Human), UniProt Q9NRG4); experiment: SMYD2 biochemical assay (SMYD2 enzyme assay on peptide substrate, 3H-SAM Flashplate); conditions: read-out: SMYD2 Biochem IC50; IC50 values are an average of n = 1 to n = 50
Sequence (Q9NRG4 whole entry): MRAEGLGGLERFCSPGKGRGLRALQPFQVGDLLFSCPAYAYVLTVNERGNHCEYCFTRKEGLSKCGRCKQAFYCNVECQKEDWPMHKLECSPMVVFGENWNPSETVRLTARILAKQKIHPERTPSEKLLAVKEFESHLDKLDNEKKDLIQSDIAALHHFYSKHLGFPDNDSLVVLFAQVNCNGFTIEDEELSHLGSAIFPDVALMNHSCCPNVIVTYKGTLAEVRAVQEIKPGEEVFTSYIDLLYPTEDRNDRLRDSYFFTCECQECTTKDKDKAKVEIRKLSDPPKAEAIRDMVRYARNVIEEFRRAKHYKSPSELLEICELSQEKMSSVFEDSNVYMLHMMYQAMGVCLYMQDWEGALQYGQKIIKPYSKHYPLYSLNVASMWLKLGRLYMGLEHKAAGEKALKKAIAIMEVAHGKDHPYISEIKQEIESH
IC50 less than 2 µM is TRUE; IC50 greater than or equal to 2 µM is FALSE.

Sample answers from the record:
CC(c1ccc(Oc2ccccc2)cc1)N1CC(NC(=O)c2cn(C3CC3)nn2)C1 (stereo not drawn) [compound 739] :: TRUE
O=C(NC1CN(Cc2cccc(OCCO)c2)C1)c1cn(C2CC2)nn1 [compound 734] :: FALSE
C[C@@H](c1ccccc1)N1CC(NC(=O)c2cn(C3CC3)nn2)C1 [compound 709] :: TRUE

For this molecule, is IC50 lower than 2 µM? O=C(NC1CN(Cc2cnn(Cc3ccccc3)c2)C1)c1cc(C2CC2)ccn1 [compound 966]
TRUE

Would you kindly verify if IC50 of O=C(NC1CN(C(c2ccc(F)cc2)C2CC2)C1)c1cn(C2CC2)nn1 (stereo not drawn) [compound 786] is strictly less than 2 µM?
TRUE

Consider CC(=O)Nc1cccc(C(C)N2CC(NC(=O)c3cn(C4CC4)nn3)C2)c1 (stereo not drawn) [compound 783] . Does its IC50 lie strictly below 2 µM?
FALSE

Say whether its IC50 is strictly beneath 2 µM. Entry: CN1CC(NC(=O)c2cn(C3CC3)nn2)C1 [compound 659]
FALSE

Is the reported IC50 for CC(C)N1CC(NC(=O)c2cc(C3CC3)cnn2)C1 [compound 645] strictly below 2 µM?
TRUE

Does the reported IC50 of O=C(NC1CN(C(c2ccccc2)C(F)(F)F)C1)c1cn(C2CC2)nn1 (stereo not drawn) [compound 766] stay below 2 µM?
FALSE

###

Listed here: items and their measured pIC50.
molecular target: SMYD2 (Homo sapiens (Human), UniProt Q9NRG4); assay: SMYD2 biochemical assay (SMYD2 enzyme assay on peptide substrate, 3H-SAM Flashplate); conditions: read-out: SMYD2 Biochem IC50; IC50 values are an average of n = 1 to n = 50
Units for pIC50: none; it is -log10 of a concentration expressed in mol/L.

Some entries whose results are on file:
CC(C)N1CCCC(NC(=O)c2cc(C3CC3)cnn2)C1 (stereo not drawn) :: 4.73
CC(c1ccc(COc2ccccc2)cc1)N1CC(NC(=O)c2cn(C3CC3)nn2)C1 (stereo not drawn) :: 6.06
CC(c1ccc2c(c1)OCO2)N1CC(NC(=O)c2cn(C3CC3)nn2)C1 (stereo not drawn) :: 6.09
CC(c1ccc(OCc2ccccc2)cc1)N1CC(NC(=O)c2cc(C3CC3)cnn2)C1 (stereo not drawn) :: 7.58
O=C(NC1CN(Cc2cnn(Cc3ccc(Cl)cc3)c2)C1)c1cn(C2CC2)nn1 :: 8.41
O=C(NC1CN(Cc2cnn(Cc3ccccc3)c2)C1)c1cc(C2CC2)cnn1 :: 8.11
COc1ccc(COc2ccc(C(C)N3CC(NC(=O)c4cn(C5CC5)nn4)C3)cc2)cc1 (stereo not drawn) [compound 855] :: 6.80
COCCN1CC(NC(=O)c2cn(C3CC3)nn2)C1 :: 5.61

# context switch: different compound, same pIC50
Field request: pIC50 | item: CC(c1ccccc1OCc1ccccc1)N1CC(NC(=O)c2cn(C3CC3)nn2)C1 (stereo not drawn)
6.38

The reported numbers originate from patent US10266526B2.
